IC50 overview
measured on: DNA gyrase subunit B (Staphylococcus aureus)
Sequence (P0A0K8 whole entry): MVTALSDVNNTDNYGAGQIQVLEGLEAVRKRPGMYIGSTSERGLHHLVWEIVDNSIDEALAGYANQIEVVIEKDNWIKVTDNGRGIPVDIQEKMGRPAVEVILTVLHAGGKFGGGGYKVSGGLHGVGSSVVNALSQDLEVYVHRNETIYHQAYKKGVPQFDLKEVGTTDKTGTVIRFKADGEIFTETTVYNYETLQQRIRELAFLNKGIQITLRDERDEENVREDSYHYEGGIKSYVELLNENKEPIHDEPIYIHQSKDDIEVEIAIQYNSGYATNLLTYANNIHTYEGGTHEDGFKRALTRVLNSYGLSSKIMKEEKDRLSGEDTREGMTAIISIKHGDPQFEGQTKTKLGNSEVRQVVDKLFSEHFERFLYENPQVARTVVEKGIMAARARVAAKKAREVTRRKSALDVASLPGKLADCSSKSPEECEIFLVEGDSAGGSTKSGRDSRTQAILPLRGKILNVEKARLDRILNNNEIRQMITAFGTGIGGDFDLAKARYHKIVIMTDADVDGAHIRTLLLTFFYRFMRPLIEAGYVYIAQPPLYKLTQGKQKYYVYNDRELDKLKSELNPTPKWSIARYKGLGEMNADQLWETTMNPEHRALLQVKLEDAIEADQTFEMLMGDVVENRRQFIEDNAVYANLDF
assay: Inhibition of Staphylococcus aureus DNA gyrase B ATPase activity

{"smiles record": "O=C(O)CCCCC(=O)Nc1ccc(-c2nc3ccccc3[nH]2)cc1", "IC50 (µM)": 5.7}
{"smiles record": "Cc1sc2nc(SCC(=O)Nc3cccc(C(=O)O)c3)nc(O)c2c1C", "IC50 (µM)": 17.3}
{"smiles record": "O=C(O)CCC(=O)Nc1ccc(-c2nc3cc(F)ccc3[nH]2)cc1", "IC50 (µM)": 17.6}
{"smiles record": "Cc1sc2nc(SCC(=O)Nc3ccc(Cl)c(C(=O)O)c3)nc(O)c2c1C", "IC50 (µM)": 77.3}
{"smiles record": "O=C(O)CSCC(=O)Nc1ccc(-c2nc3cccnc3[nH]2)cc1", "IC50 (µM)": 2.31}
{"smiles record": "O=C(O)CSCC(=O)Nc1ccc(-c2nc3cc(Cl)ccc3[nH]2)cc1", "IC50 (µM)": 13.8}
